# experiment_notes: MRP1 drug-resistance reversers in H69AR cells – cell-based, doxorubicin co-treatment, pilot screen (AID 601)
# run_conditions: H69AR cells + 2 uM doxorubicin, CellTiter-Glo, 72 h; at 10 µM; stronger effect = higher value
Quick reference: differential viability (reversal) of the listed items.
Dear colleague, please return just the value in %, with no unit written.

compound	measurement_unit	differential viability (reversal)
CCOCCCNC(=O)Cn1ncc2c(=O)oc3ccccc3c21	%	-3.42
O=C(Nc1ccc(N2CCCC2)cc1)c1ccc(Br)o1	%	15.6
Cc1nn(C(=O)c2ccc3c(c2)OCO3)c(N)c1-c1ccccc1	%	9.75
CCn1c(SCC(=O)Nc2cc(C)ccc2C)nc2c(c1=O)SC(C)C2 (centres undefined)	%	15.4
Cc1nc2ccccc2c2oc(C(=O)NCCCN3CCCC3=O)cc12	%	13.9
O=C(Nc1ccccc1)c1cnc2n(c1=O)CCS2	%	-2.48
CCOc1ccccc1NC(=O)CC1Nc2cc(C)c(C)cc2NC1=O (centres undefined)	%	-25.8
CC(=O)Nc1cccc(NC(=O)c2ccco2)c1	%	-0.085
COC(=O)CN1C(=O)C(O)(CC(=O)c2ccc(Cl)cc2)c2ccccc21 (centres undefined)	%	-21.3
O=C(OCCN=C1NS(=O)(=O)c2ccccc21)C1CC(=O)N(c2ccc(Cl)cc2)C1 (centres undefined)	%	5.78

For CCC(C)NC(=O)c1cc(CC(C)C)on1 (centres undefined) , what is its reported differential viability (reversal)? -11.1

Next up: COCCNC(=O)C(C)N(c1ccc(Oc2ccccc2)cc1)S(C)(=O)=O (centres undefined) 7.53

Also COc1cc2c(cc1OC)CN(C(=O)CSc1nnc3scc(-c4ccccc4)n13)CC2 , if possible. 8.16

Another compound: O=C(Nc1nc2c(s1)CCCC2)C1COc2ccccc2O1 (centres undefined) -10.7

Then COc1cccc(C2CC(c3ccc(C)cc3)n3nc(N)nc3N2)c1 (centres undefined) ? -7.23

And the next one, CCc1cc2c(=O)c(-c3nc4ccccc4[nH]3)coc2c(CN2CCC(C)CC2)c1O ? 0.66

What would you report for CCCN1CCN(C(=O)c2cn(CC(C)C)c(=O)c3cc(OC)c(OC)cc23)CC1 ? -0.945

Can you check CCOc1ccc(-c2nnc(SCC(=O)N3CCN(c4ccccc4)CC3)o2)cc1 next? -2.04

Thanks! And O=C(Cn1nc(Cc2cccnc2)c2ccccc2c1=O)Nc1ccc2c(c1)OCO2 ? 9.09

Moving on to CC(=O)NCCc1nc2ccccc2[nH]1 -1

Quick one: COc1cccc(NC(=O)c2ccco2)c1 7.72
